Values were extracted from ChEMBL document CHEMBL1144761.

The following compounds are listed with their measured zone of inhibition at 20 µg/disc values.
# System: Streptomyces
# EXPERIMENT_NOTES: Antibacterial activity against Streptomyces 85E assessed as clear zone at 20 ug/disk after 30 hrs by hyphae formation inhibition assay
# Format: functional
# EXPERIMENTAL_PARAMETERS: read-out: IZ
Field format: number, assumed mm, no unit text.

{"columns": ["COMPOUND", "OBSERVED_PROPERTY", "NUMERIC_VALUE"],
 "data": [
  ["Oc1c(Br)c(Br)cc(Br)c1Oc1ccccc1Br", "zone of inhibition at 20 µg/disc", 20]
]}

Please fill in: zone of inhibition at 20 µg/disc reported for `Oc1c(Br)cc(Br)c(Br)c1Oc1ccc(Br)cc1Br` = 12

Please fill in: zone of inhibition at 20 µg/disc reported for `Oc1c(Br)cc(Br)cc1Oc1ccc(Br)cc1Br` = 13

Please fill in: zone of inhibition at 20 µg/disc reported for `Oc1c(Oc2ccc(Br)cc2Br)ccc(Br)c1Br` = 13

###

# Tested on: MCF7
# EXPERIMENT_NOTES: Antiproliferative activity against human MCF7 cells
# Format: functional, cell-based
OBSERVED_PROPERTY: IC50 (µM)
Field format: number, assumed µM, no unit text.

{"columns": ["COMPOUND", "TARGET_ENTITY", "IC50 (µM)"],
 "data": [
  ["Oc1c(Br)c(Br)cc(Br)c1Oc1ccccc1Br", "MCF7", 6.96],
  ["Oc1c(Br)c(Br)cc(Br)c1Oc1ccc(Br)cc1Br", "MCF7", 7.52]
]}

Please fill in: IC50 reported for `COc1c(O)c(Oc2ccc(Br)cc2Br)c(Br)c(Br)c1Br` = 8.69

Please fill in: IC50 reported for `Oc1c(Br)cc(Br)c(Br)c1Oc1ccc(Br)cc1Br` = 8.73

Please fill in: IC50 reported for `Oc1c(Oc2ccc(Br)cc2Br)ccc(Br)c1Br` = 7.23

Please fill in: IC50 reported for `Oc1c(Br)ccc(Br)c1Oc1ccc(Br)cc1Br` = 6.89

Please fill in: IC50 reported for `Oc1c(Br)c(Br)c(Br)c(Br)c1Oc1ccc(Br)cc1Br` = 9.48

Please fill in: IC50 reported for `Oc1cc(Br)cc(Br)c1Oc1ccc(Br)cc1Br` = 2.84

Please fill in: IC50 reported for `Oc1c(Br)cc(Br)cc1Oc1ccc(Br)cc1Br` = 8.9

###

# System: Streptomyces
# EXPERIMENT_NOTES: Antibacterial activity against Streptomyces 85E assessed as clear zone at 20 ug/disk after 30 hrs by hyphae formation inhibition assay
# Format: functional
# EXPERIMENTAL_PARAMETERS: read-out: IZ
OBSERVED_PROPERTY: zone of inhibition at 20 µg/disc

Answered examples (2):
{"columns": ["COMPOUND", "zone of inhibition at 20 µg/disc"],
 "data": [
  ["Oc1cc(Br)cc(Br)c1Oc1ccc(Br)cc1Br", "20 mm"],
  ["Oc1c(Br)ccc(Br)c1Oc1ccc(Br)cc1Br", "14 mm"]
]}

Now consider the entry below.
Please fill in: zone of inhibition at 20 µg/disc reported for `Oc1c(Br)c(Br)c(Br)c(Br)c1Oc1ccc(Br)cc1Br` = 15 mm
